# Tested On: T1, human TPBG-hFc protein (human, UniProt Q13641 32-355)
# T1 construct: range 32-355; Expressed in HEK293 cells, purified on protein A; also called immunogen A; hFc tagged TPBG protein; not shown: human IgG Fc fragment of the pCpC vector
# T1 sequence (looked up): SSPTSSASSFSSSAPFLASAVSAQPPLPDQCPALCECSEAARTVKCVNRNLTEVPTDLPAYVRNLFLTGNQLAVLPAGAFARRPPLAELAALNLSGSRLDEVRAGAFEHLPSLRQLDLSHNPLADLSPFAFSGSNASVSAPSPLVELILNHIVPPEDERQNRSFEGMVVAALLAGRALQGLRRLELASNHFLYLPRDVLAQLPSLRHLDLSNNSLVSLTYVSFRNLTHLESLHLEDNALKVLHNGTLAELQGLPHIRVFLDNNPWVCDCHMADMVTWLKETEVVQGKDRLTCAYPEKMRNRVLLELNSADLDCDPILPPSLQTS
# Protocol Description: ELISA, coated human TPBG-hFc
Measurement Label: pEC50
The scale used: pEC50 is minus the common logarithm of the concentration in molar units.

Memo: Humanized antibody 28D4-11 (antibody, V domains shown, also called h28D4-11) VH: EVQLVESGGGLVKPGGSLRLSCAASGFTFSNYVMSWIRQAPGKGLEWVAEISTGGSHTYYSDTVTGRFTISRDNAKKSLYLQMNSLRAEDTAVYYCIMFYYGSSYSMDYWGQGTTVTVSS VL: DIQMTQSPSSLSASVGDRVTITCRASQDIRNYLNWYQQKPGKTVKLLIYHTSRLHSGVPSRFSGSGSGTDYTFTISSLQPEDIATYFCQQGDTLPLTFGQGTRLEIK , reported pEC50: 9.72

Each recorded value in this set is attributed to patent US20200062856A1.
